Target: T1, HEK293/hPRLR (Homo sapiens, UniProt P16471)
T1 construct: HA; expressed in transfected cells; host or cells: HEK293
T1 sequence (P16471 25-622): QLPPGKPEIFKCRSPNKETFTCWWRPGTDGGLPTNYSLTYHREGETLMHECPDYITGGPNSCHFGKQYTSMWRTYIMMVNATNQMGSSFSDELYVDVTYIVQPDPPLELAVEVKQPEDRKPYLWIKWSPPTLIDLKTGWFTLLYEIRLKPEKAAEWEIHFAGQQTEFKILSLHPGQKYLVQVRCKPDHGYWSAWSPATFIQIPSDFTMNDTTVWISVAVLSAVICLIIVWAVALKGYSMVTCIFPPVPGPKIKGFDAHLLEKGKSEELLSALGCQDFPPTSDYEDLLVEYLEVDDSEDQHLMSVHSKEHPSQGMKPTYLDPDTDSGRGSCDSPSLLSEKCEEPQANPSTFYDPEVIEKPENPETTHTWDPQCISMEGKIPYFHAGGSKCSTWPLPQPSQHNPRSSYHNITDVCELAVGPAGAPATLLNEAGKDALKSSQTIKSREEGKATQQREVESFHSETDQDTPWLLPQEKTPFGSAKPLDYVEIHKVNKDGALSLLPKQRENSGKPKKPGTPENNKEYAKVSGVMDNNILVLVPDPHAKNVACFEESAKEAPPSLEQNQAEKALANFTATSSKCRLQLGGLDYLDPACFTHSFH
Test: FACS cell surface binding
Give measured FACS Cell Binding (Fold Above Background) for each item. Keep answers brief.
Field: numeric (Fold Above Background). Do not append units.

Task: Param item = H1H6765P: anti-PRLR antibody, human IgG1 Fc; HCVR/LCVR SEQ ID NOs 18/26 (antibody, V domains shown, human IgG1 Fc) VH: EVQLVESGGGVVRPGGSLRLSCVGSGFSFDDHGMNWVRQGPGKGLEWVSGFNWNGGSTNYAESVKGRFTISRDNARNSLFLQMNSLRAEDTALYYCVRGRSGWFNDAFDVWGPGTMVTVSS VL: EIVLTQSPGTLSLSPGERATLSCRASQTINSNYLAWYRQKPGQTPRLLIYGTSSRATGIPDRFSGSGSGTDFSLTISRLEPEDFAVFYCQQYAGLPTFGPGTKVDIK ; retrieve measured FACS Cell Binding (Fold Above Background).
Output: 38

Task: For H1H6966N: human IgG1 Fc form of H2M6966N; anti-PRLR; HCVR/LCVR SEQ ID NOs 338/346 (antibody, V domains shown, human IgG1 Fc) VH: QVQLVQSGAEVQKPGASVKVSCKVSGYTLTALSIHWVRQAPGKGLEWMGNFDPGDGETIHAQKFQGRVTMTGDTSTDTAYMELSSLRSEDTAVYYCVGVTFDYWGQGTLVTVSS VL: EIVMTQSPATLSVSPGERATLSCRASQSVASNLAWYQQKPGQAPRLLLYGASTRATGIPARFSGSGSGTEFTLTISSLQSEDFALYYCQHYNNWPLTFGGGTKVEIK , what is its reported FACS Cell Binding (Fold Above Background)?
Output: 29

Task: Which FACS Cell Binding (Fold Above Background) value belongs to H1H6967N: human IgG1 Fc form of H2M6967N; anti-PRLR; HCVR/LCVR SEQ ID NOs 354/362 (antibody, V domains shown, human IgG1 Fc) VH: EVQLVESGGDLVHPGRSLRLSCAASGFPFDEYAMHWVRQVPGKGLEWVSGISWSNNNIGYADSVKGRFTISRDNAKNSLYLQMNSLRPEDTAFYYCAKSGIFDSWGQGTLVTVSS VL: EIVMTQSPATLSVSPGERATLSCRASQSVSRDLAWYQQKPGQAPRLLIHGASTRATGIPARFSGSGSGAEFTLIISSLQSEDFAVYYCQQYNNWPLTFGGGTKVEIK ?
Output: 38

Task: Returns the measured FACS Cell Binding (Fold Above Background) for the input molecule. Input: H1H6801P: anti-PRLR antibody, human IgG1 Fc; HCVR/LCVR SEQ ID NOs 210/218 (antibody, V domains shown, human IgG1 Fc) VH: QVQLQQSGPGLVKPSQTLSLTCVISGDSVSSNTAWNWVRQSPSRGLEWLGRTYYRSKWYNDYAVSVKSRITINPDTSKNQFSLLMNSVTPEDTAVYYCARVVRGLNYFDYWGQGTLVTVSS VL: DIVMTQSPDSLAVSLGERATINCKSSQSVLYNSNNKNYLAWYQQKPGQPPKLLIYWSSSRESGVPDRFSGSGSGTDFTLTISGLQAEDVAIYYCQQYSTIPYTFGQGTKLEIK
Output: 47

Task: GET /values?readout=FACS Cell Binding (Fold Above Background)&item= H1H6803P: anti-PRLR antibody, human IgG1 Fc; HCVR/LCVR SEQ ID NOs 226/234 (antibody, V domains shown, human IgG1 Fc) VH: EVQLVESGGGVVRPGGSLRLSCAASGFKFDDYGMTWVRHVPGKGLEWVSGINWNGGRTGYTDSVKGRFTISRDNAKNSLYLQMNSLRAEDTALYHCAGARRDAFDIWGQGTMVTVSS VL: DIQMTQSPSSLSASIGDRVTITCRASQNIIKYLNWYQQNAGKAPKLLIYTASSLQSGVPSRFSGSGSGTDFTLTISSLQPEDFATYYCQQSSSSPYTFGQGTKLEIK
Output: 39

Task: Returns the measured FACS Cell Binding (Fold Above Background) for the input molecule. Input: H1H6793P: anti-PRLR antibody, human IgG1 Fc; HCVR/LCVR SEQ ID NOs 146/154 (antibody, V domains shown, human IgG1 Fc) VH: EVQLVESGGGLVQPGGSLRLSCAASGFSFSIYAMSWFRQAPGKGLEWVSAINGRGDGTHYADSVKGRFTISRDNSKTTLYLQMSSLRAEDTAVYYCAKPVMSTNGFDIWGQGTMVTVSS VL: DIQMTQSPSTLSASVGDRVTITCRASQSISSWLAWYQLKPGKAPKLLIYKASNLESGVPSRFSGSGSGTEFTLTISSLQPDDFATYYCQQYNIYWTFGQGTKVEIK
Output: 2

Task: Can you look up the measured FACS Cell Binding (Fold Above Background) of H1H6800P: anti-PRLR antibody, human IgG1 Fc; HCVR/LCVR SEQ ID NOs 194/202 (antibody, V domains shown, human IgG1 Fc) VH: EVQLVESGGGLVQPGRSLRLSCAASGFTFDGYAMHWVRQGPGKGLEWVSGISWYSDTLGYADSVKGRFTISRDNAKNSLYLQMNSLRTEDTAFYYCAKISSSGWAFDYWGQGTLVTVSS VL: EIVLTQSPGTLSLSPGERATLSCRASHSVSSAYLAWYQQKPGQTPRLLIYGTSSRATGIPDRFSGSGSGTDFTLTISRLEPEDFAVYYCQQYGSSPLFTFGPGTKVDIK for me?
Output: 35

Task: Value lookup for FACS Cell Binding (Fold Above Background); key = H1H6782P: anti-PRLR antibody, human IgG1 Fc; HCVR/LCVR SEQ ID NOs 66/74; non-blocking (antibody, V domains shown, human IgG1 Fc) VH: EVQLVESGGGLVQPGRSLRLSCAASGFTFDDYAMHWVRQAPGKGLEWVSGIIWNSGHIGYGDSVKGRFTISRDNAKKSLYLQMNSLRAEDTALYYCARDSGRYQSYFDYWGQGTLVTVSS VL: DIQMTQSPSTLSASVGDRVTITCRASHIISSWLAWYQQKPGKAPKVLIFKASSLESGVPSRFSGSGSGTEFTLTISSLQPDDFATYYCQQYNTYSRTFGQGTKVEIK
Output: 41

Reference for the values: patent US9688764B2
